// data source = ChEMBL document CHEMBL3734738

Target: Histone deacetylase 1 (Homo sapiens, UniProt Q13547)
Sequence (Q13547 whole entry): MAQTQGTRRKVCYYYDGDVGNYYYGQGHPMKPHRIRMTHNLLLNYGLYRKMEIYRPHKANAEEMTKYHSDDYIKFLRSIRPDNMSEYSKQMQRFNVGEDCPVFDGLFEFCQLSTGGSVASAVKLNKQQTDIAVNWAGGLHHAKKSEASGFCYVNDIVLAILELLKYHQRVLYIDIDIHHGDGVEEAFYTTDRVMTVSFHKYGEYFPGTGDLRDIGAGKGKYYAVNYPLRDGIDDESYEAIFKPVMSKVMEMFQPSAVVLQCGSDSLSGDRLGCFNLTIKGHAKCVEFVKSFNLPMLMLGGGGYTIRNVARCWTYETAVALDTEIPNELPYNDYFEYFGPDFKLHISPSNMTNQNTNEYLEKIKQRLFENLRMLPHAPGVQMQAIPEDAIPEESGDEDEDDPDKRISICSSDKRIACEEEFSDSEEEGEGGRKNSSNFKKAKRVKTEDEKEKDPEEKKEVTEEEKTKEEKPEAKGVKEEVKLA
Experiment: Inhibition of recombinant HDAC1 (unknown origin) expressed in Escherichia coli BL21(DE3) after 60 mins using trichostatin A by label-free mass spectrometry-based SAMDI assay
outcome.measure: IC50 (nM)

>>> reported_measurement("CC[C@H]1OC(=O)[C@H](C)C(=O)[C@H](C)[C@@H](O[C@@H]2O[C@H](C)C[C@H](N(C)Cc3cccc(-c4cn(CCCCCCC(=O)NO)nn4)c3)[C@H]2O)[C@@](C)(OC)C[C@@H](C)C2=NCCN3C(=O)O[C@@]1(C)[C@H]3[C@H]2C")
54.5
>>> reported_measurement("CC[C@H]1OC(=O)[C@@H](C)[C@H](O[C@H]2C[C@@](C)(OC)[C@](O)(CN(C)Cc3ccc(-c4cn(CCCCC(=O)NO)nn4)cc3)[C@H](C)O2)[C@H](C)[C@H](O[C@H]2O[C@@H](C)C[C@@H](N(C)C)[C@@H]2O)[C@@](C)(O)C[C@H](C)CN(C)[C@@H](C)[C@H](O)[C@@]1(C)O")
531
>>> reported_measurement("CC[C@H]1OC(=O)[C@H](C)C(=O)[C@H](C)[C@@H](O[C@@H]2O[C@H](C)C[C@H](N(C)Cc3cccc(-c4cn(CCCCCC(=O)NO)nn4)c3)[C@H]2O)[C@@](C)(OC)C[C@@H](C)C2=NCCN3C(=O)O[C@@]1(C)[C@H]3[C@H]2C")
109
